Molecular target: FtsA (Escherichia coli)
Construct: made in house; host or cells: E. coli C41(DE3)
Sequence (P0ABH0 1-405): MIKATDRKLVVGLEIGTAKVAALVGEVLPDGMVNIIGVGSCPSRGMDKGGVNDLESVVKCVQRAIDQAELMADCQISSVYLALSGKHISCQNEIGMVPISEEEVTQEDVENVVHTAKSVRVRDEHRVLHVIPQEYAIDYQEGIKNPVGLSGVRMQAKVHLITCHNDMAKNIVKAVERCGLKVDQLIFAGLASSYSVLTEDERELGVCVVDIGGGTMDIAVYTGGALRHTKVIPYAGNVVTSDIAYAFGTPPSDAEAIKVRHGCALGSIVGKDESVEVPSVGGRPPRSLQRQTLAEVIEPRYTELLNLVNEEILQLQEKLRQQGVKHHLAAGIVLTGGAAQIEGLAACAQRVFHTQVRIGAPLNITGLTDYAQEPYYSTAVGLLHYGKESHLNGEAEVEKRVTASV
Test: SPR, EcFtsN^1-32 truncations and mutations binding to immobilised FtsA
Details: SPR equilibrium response; peptide 1:2 dilution series from 20 μM; mean ± SEM (n ≥ 2 for each construct); asterisk: maximum response fixed during fitting, approximate values; ND: not determinable; read-out: SPR K^eqd
Ends that are not written are not given here.
measurement type: Kd

Ask: Which value of Kd has been reported for MAQRDYVRRSQPAPSRRKKSTSASAQRNLPAV [EcFtsN^1-32, ΔRK3] in the records?
Result: ~80.6 µM

Ask: Fill in the blank: the reported Kd of MAQRDYVRRSQPAPSAASASTSRKKQRNLPAV [EcFtsN^1-32, ΔRK2] is ____.
Result: ~166 µM
